Experiment: solvent given as SMILES
Conditions: in CCCC(C)O
Threshold check on solvation free energy, 298 K: at or above -10 kcal/mol gives True, strictly below gives False.

COMPOUND: O=C(O)c1ccccc1O
LABEL CLASS: False
//
COMPOUND: CCC
LABEL CLASS: True
//
COMPOUND: CCCC
LABEL CLASS: True

Query compound follows.
Exercise: Test whether the compound `O=C(O)c1ccccc1` records solvation free energy, 298 K of -10 kcal/mol or higher.
Key: True

* * *

Assay: solvent given as SMILES
Conditions: in O
Rule: solvation free energy, 298 K of -3 kcal/mol or more gives true (1); anything lower gives false (0).

MOLECULE: CCS
LABEL CLASS: true (1)

MOLECULE: C=CC=C
LABEL CLASS: true (1)

MOLECULE: C=C1CC=C(C(C)C)CC1
LABEL CLASS: true (1)

Exercise: Does `CCNc1nc(Cl)nc(NC(C)(C)C)n1` have a reported solvation free energy, 298 K of at least -3 kcal/mol?
Key: false (0)

Exercise: hey, is solvation free energy, 298 K for this one >= -3 kcal/mol? `CCCCCCCCCCO`
Key: false (0)

Exercise: State whether the measured solvation free energy, 298 K reaches -3 kcal/mol, counting equality as reaching it, for CC1CCCCC1O (stereo unspecified)
Key: false (0)

Exercise: Hi, just wondering whether `C=CCC=C` shows solvation free energy, 298 K of -3 kcal/mol or higher.
Key: true (1)

Exercise: Reported solvation free energy, 298 K reaches at least -3 kcal/mol for C=C1CCC2C1C1C(C(C)C)CCC21C (stereo unspecified) ?
Key: true (1)

Exercise: Exam item: decide whether the reported solvation free energy, 298 K for `CCCOC(C)=O` is at least -3 kcal/mol.
Key: true (1)

Exercise: For this molecule, is measured solvation free energy, 298 K -3 kcal/mol or higher? `CN1CCOCC1`
Key: false (0)

* * *

Assay: solvent given as SMILES
Conditions: in CC(C)CCCC(C)CCCC(C)CCCCC(C)CCCC(C)CCCC(C)C
solvation free energy, 298 K vs -4 kcal/mol: less than gives class 1; not less than gives class 0.

Study these solved cases before continuing.
ENTRY SMILES: CCCOC(C)=O
LABEL CLASS: class 0
--
ENTRY SMILES: CC1CCCCC1
LABEL CLASS: class 1
--
ENTRY SMILES: CC(C)O
LABEL CLASS: class 0

Exercise: Record `C1COCCO1` : is its solvation free energy, 298 K strictly below -4 kcal/mol?
Key: class 0

Exercise: Here's an entry: `CCC1CCCCC1` . Is its solvation free energy, 298 K below -4 kcal/mol?
Key: class 1

Exercise: Given `CCC(C)(C)C` , is recorded solvation free energy, 298 K strictly lower than -4 kcal/mol?
Key: class 0

Exercise: A record lists `CCCC(C)=O` . Is its solvation free energy, 298 K below -4 kcal/mol?
Key: class 0

* * *

Assay: solvent given as SMILES
Conditions: in CCCCCCCCC=CCCCCCCCC(=O)OCC(COC(=O)CCCCCCCC=CCCCCCCCC)OC(=O)CCCCCCCC=CCCCCCCCC
Give measured solvation free energy, 298 K for each item. Keep answers brief.
One number for each entry, in kcal/mol.

COMPOUND: C=CCCCC
MEASUREMENT UNIT: kcal/mol
solvation free energy, 298 K: -3.41

Give one value of solvation free energy, 298 K per listed compound.
1. Clc1ccc(Cl)c(-c2ccccc2Cl)c1
2. Oc1c(Cl)c(Cl)c(Cl)c(Cl)c1Cl

Key:
[-9.75, -10.3]

Would you mind giving solvation free energy, 298 K for every compound in the list below?
1. Clc1c(Cl)c(Cl)c(Cl)c(Cl)c1Cl
2. ClC=C(Cl)Cl
3. Clc1ccc(Cl)cc1

Key:
-9.52
-4.37
-6.7

Kindly give each listed record's solvation free energy, 298 K.
1. CCCCCCCCCCCCCCO
2. c1ccc2c(c1)Cc1ccccc1-2
3. Brc1cc(Br)c(Br)cc1Br
4. CCCCCCCCCCCCCCCCCC
5. Brc1cc(Br)cc(Br)c1

Key:
-9.9
-9.74
-9.71
-12.4
-8.73

Each compound below has a reported value. Please supply its solvation free energy, 298 K.
1. CCC1CCCCC1
2. c1ccc(N=Nc2ccccc2)cc1
3. C=CCCCCCC
4. c1ccc2c(c1)ccc1ccccc12
5. Clc1ccc(C(c2ccccc2Cl)C(Cl)(Cl)Cl)cc1 (stereo not given)
6. CCCCCl
7. CCOP(=S)(OCC)Oc1nc(Cl)c(Cl)cc1Cl
8. CCCOC(C)=O

Key:
1. -5.07
2. -11.2
3. -4.65
4. -10.6
5. -13.8
6. -3.93
7. -14.4
8. -4.35

Would you be so kind as to report solvation free energy, 298 K for each listed record?
1. Cc1cc2ccccc2cc1C
2. c1ccc2c(c1)cc1ccc3cccc4ccc2c1c34

Key:
[-8.95, -16.7]

Batch of 2 compounds: report solvation free energy, 298 K for each.
1. CCCCCCCCCCCCCCCCO
2. Clc1ccc(-c2ccc(Cl)cc2)cc1

Key:
1: -11.6; 2: -10.9

I'm hoping you can list solvation free energy, 298 K for every compound here, please.
1. O=C1c2ccccc2-c2ccccc21
2. Cc1c(Cl)c(Cl)c(Cl)c(Cl)c1Cl
3. Cc1ccc2cc(C)ccc2c1
4. CC1CCCCC1
5. CNC(=O)Oc1cccc2ccccc12
6. ClC(Cl)Cl
7. Oc1c(Cl)cc(Cl)cc1Cl

Key:
1. -10.5
2. -9.88
3. -8.29
4. -4.26
5. -12.6
6. -4.02
7. -8.28
